System: DMS-114
Assay: NCI tumour cell line growth inhibition, 48 h
Calls of active or inactive are those of the source. Rule as the data show it: active = GI50 up to about 1.1 µM and inactive = higher.
Parameter measured: GI50

The following compounds have reported results that may help.
Oc1ncnc2c1nnn2CCCn1nnc2c(O)ncnc21
> 100 µM (inactive)
O=C(CCCC(=O)Nc1ccc(Cl)cc1Cl)CC(=O)c1ccc2ccccc2c1
> 100 µM (inactive)
NC1CCC[C@H]1O (stereo not given in full)
> 100 µM (inactive)
COc1ccc(/C(Cl)=C(\C=O)c2ccc([N+](=O)[O-])cc2)cc1
17.3 µM (inactive)

The record that follows has no GI50 shown yet.
GI50 measured on CC(C)CC1CC2C(=O)N(c3ccccc3)C(=O)C2c2[nH]c3ccccc3c21 (stereo not given) = 15.9 µM (inactive)

---

Tested on: MDA-MB-435
Assay: NCI tumour cell line growth inhibition, 48 h
Calls of active or inactive are those of the source. No stated cut-off is given here; in the data, active = GI50 up to about 1.1 µM and inactive = higher.
In this exercise, the only acceptable responses are active, inactive

Some solved entries appear below for comparison.
Sc1nnc(COc2ccc(Cl)cc2)n1-c1ccccc1
inactive
Oc1cccc2ccc(Br)nc12
inactive
COC(=O)C(N)CCCC(N)C(=O)NC(C)C(=O)NC(CCC(=O)NCCCNc1ccc([N+](=O)[O-])c2[nH]c3ccccc3c(=O)c12)C(N)=O (stereo not given)
inactive
c1ccc2c(-c3cnc(-c4c[nH]c5ccccc45)cn3)c[nH]c2c1
inactive

Let's switch to this compound now.
Give the logged outcome of this assay for the following compound: CCCCC(=O)OC[n+]1ccc2c(C)c3[nH]c4ccccc4c3c(C)c2c1
active

---

Test system: NCI-H226
Experiment: NCI tumour cell line growth inhibition, 48 h
Active and inactive are the calls of the source. Cut-off read from the data, not from the text of the source: active = GI50 up to about 1.1 µM and inactive = higher.
In this exercise, the only acceptable responses are active, inactive

Some solved entries appear below for comparison.
COC(=O)[C@H](Cc1ccccc1)NC(=O)[C@H](Cc1ccccc1)NC(=O)[C@@H]1CCCN1C(=O)N[C@H]1C2C=CC(C2)C1C(=O)N1CCC[C@H]1C(=O)N[C@@H](C)C(=O)N[C@H](C(=O)OC)C(C)C (some centres undefined)
inactive
O=C1Nc2ccc(Br)cc2/C1=C/C(=O)c1ccccc1
inactive
O=C(CC1(O)C(=O)Nc2ccccc21)c1ccc(O)cc1 (centres undefined)
inactive
CCn1c(=O)c2nc(SC)sc2n(-c2ccccc2)c1=S
inactive
Cc1cccc(NC(=O)/C=C/c2ccc([N+](=O)[O-])cc2)c1
inactive
C=CCOC(=O)CC[C@H](NC(=O)[C@@H](CCC(F)(F)F)Cc1ccc(O)cc1)C(=O)OCC=C
inactive
CC[C@@]1(O)C(=O)OCc2c1cc1n(c2=O)Cc2c-1nc1ccccc1c2/C=N\NC(=O)C(N)Cc1ccc(O)cc1 (some centres undefined)
active
O=C(COc1ccc(/C=C/C(=O)c2ccc(Cl)cc2)cc1)Nc1c(Cl)cccc1Cl
inactive

Give the logged outcome of this assay for the following molecule: C=CCSc1ncnc2c1ncn2C1OC(CO)C(O)C1O (centres undefined)
inactive

Give the logged outcome of this assay for the following molecule: COC(=O)[C@]12CC[C@H]3CN(C(=O)OCc4ccccc4)[C@H]([C@H]31)[C@H](C(=O)OCC[Si](C)(C)C)N2S(=O)(=O)c1ccc(C)cc1
inactive

Give the logged outcome of this assay for the following molecule: O=C(c1ccccc1)n1c(Cc2ccccc2)nc2cc(C34CC5CC(CC(C5)C3)C4)ccc21
inactive

Give the logged outcome of this assay for the following molecule: Cc1cc(Cl)nc(Nc2nc3ccccc3[nH]2)n1
inactive

Give the logged outcome of this assay for the following molecule: CCN(CC)c1ncnc2c1ncn2CCNC(CO)(CO)CO
inactive

Give the logged outcome of this assay for the following molecule: CC(C)[C@@H]1ON1C(C)c1ccccc1 (some centres undefined)
inactive

Give the logged outcome of this assay for the following molecule: CC(C)(C)C1=CC(=C(P(=O)(O)O)P(=O)(O)O)C=C(C(C)(C)C)C1=O
inactive

Give the logged outcome of this assay for the following molecule: CN(/N=C\c1ccnc2ccccc12)c1ccc([N+](=O)[O-])cc1
inactive

Give the logged outcome of this assay for the following molecule: COC(=O)C1Cc2c(n(C)c3ccccc23)C(CCC(=O)O)N1Cc1ccccc1 (centres undefined)
inactive

Give the logged outcome of this assay for the following molecule: O=C1CC(c2ccccc2)n2c(nc3ccccc32)N1 (centres undefined)
inactive

Give the logged outcome of this assay for the following molecule: Cc1cccc(NC(Nc2cccc(C)c2)=C(C(Cl)=C(Cl)Cl)[N+](=O)[O-])c1
inactive
